# Tested on: 786-0 renal
# METHOD NOTES: NCI-60 one-dose screen, 48 h
# TEST SETTINGS: 10 µM unless noted
Compounds without any hit were thinned out: in the full panel of roughly 83,000, 20% have a hit. Calls of active or inactive are those of the source. How the source made its calls: active means growth percent below 10; inactive means the rest.
API: response.call in active, inactive

COc1ccc(-n2nnnc2-c2cn[nH]c2C(F)(F)F)cc1    inactive
Cc1ccc2c(c1)C(=O)CCS2    inactive
O=C(OCC1CC2(Cl)C(Cl)=C(Cl)C1(Cl)C2(Cl)Cl)C1C(C(=O)OCC2CC3(Cl)C(Cl)=C(Cl)C2(Cl)C3(Cl)Cl)C2(Cl)C(Cl)=C(Cl)C1(Cl)C2(Cl)Cl (configuration not stated)    inactive
CCOC(=O)NNc1[nH]c(-c2ccc(OC)cc2)cc1C#N    inactive
COc1cc2c(c(OC)c1OC)C(=O)CC(c1cccc(C(=O)Nc3cccc(Br)c3)c1)O2 (configuration not stated)    inactive
Cc1nnc(/N=C2\NC(=O)/C(=C/C=C/c3ccccc3)S2)s1    inactive

State the result this test recorded for CC(=O)N1N=C(c2ccc(Cl)cc2)CC1c1cn(-c2ccccc2)nc1-c1ccc([N+](=O)[O-])cc1 (configuration not stated) .
inactive

State the result this test recorded for COc1ccc(-c2nc(SCC(C)C)nc(Nc3ccccc3)c2C#N)cc1 .
inactive

State the result this test recorded for C[n+]1c2ccccc2c(Nc2ccc(NS(=O)(=O)CCCCN=C(N)N)cc2)c2ccc(N)cc21 .
inactive

State the result this test recorded for COc1ccccc1Cn1cc2c(c1)-c1oncc1CC2 .
inactive

State the result this test recorded for COc1ccc(/C=C2\CCCC3=C2N=C2SC=NN2C3c2ccc(OC)c(OC)c2)cc1OC (configuration not stated) .
inactive
